- assay info: NCI Yeast Anticancer Drug Screen. Data for the mec2-1 strain (AID 157)
- condition parameters: S. cerevisiae mec2-1 strain, at 50.0 µM, stronger effect = higher value
About 79,000 compounds went through this panel and 15% of them were active in at least one assay; those are over-represented in the sample as a whole.
experimental readout: growth inhibition (%)
Express the result in % but write the number alone.

stdin: Which growth inhibition is listed for OCCN1CCN(C2=Nc3cccnc3Nc3cscc32)CC1 ?
stdout: -1.15

stdin: Could you do the same for COc1ccccc1C1CCCCC1SCC(=O)O (stereo not drawn) , please?
stdout: 11.7

stdin: Could you do the same for CCCC(=O)C(N)Cc1ccc(O)cc1 (stereo not drawn) , please?
stdout: -10.3

stdin: Could you do the same for COc1ccc(-c2c(O)c3cccc(-c4ccccc4)c3oc2=O)cc1 , please?
stdout: 6.7

stdin: Could you do the same for Cc1cccc2c1Oc1ccccc1C2NC(=O)OCCc1ccccc1 (stereo not drawn) , please?
stdout: -8.25

stdin: Could you do the same for O=C1NC(=O)C(c2ccc(C(=O)O)cc2)N1 (stereo not drawn) , please?
stdout: -10

---

Listed here: items and their measured growth inhibition.
- assay info: NCI Yeast Anticancer Drug Screen. Data for the sgs1 mgt1 strain (AID 161);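 note: 0% = growth of cultures given vehicle only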
- condition parameters: S. cerevisiae sgs1 mgt1 strain, at 50.0 µM, stronger effect = higher value
The panel holds about 79,000 compounds, 15% with a hit somewhere; the sample as a whole holds those more often.
Express the result in % but write the number alone.

Some solved entries appear below for comparison.
molecule	experimental readout	result value
CC1(CCOCc2ccccc2)NC(=O)N(CCC#N)C1=O (centres undefined)	growth inhibition	-4.6
Cc1cc(N=C2C=CC(=O)C=C2)ccc1O	growth inhibition	30.4
OCC(O)C(O)C(O)[C@H](O)c1nc2ccccc2[nH]1 (some centres undefined)	growth inhibition	0.15

stdin: Which growth inhibition is listed for Oc1cccc(C(c2ccccc2)c2ccccc2)c1 ?
stdout: -5.5

stdin: Could you do the same for O/N=C(\CC(O)(C(F)(F)F)C(F)(F)F)c1cccs1 , please?
stdout: 45.6

stdin: Could you do the same for [O-][N+]1=C(c2ccccc2)C(c2ccccc2)C(c2ccccc2)O1 (centres undefined) , please?
stdout: -2.4

stdin: Could you do the same for ClC(Cl)(Cl)C(N1CCN(c2ccccc2)CC1)N1CCN(c2ccccc2)CC1 , please?
stdout: -29.4

stdin: Could you do the same for O=C(O)c1ccc(NC(=S)Nc2ccc(C(=O)O)cc2)cc1 , please?
stdout: 19.9

stdin: Could you do the same for O=C(O)C#Cc1ccccc1[N+](=O)[O-] , please?
stdout: 11.3

stdin: Could you do the same for Cc1cc(Br)ccc1N=c1scc(-c2ccc(Cl)cc2)n1C , please?
stdout: 4.45

stdin: Could you do the same for COc1cc2c(cc1OC)C(=O)C1(CO)COC(=O)C1C2 (centres undefined) , please?
stdout: -2.15

stdin: Could you do the same for O=C1c2ccccc2CN1c1ccc(O)cc1 , please?
stdout: -14.8

stdin: Could you do the same for CC(=O)N1Cc2c(N)ncnc2C1C (centres undefined) , please?
stdout: -18.8

stdin: Could you do the same for COc1cc2c(cc1OC)C1c3cc(OC)c(OC)cc3CC(=O)N1CC2 (centres undefined) , please?
stdout: 38.5

stdin: Could you do the same for CC(=O)Oc1cccc(/C=C/C(=O)O)c1 , please?
stdout: 22.9

stdin: Could you do the same for N#Cc1c(Br)n(C2OC(CO)C(O)C2O)c2ncncc12 (centres undefined) , please?
stdout: 1.55

stdin: Could you do the same for COc1cc(CNC(=O)NCCCl)cc(OC)c1OC , please?
stdout: -3.2

stdin: Could you do the same for N#Cc1c(N)nc2c(c(-c3ccc(Cl)cc3)nn2-c2ccccc2)c1C#N , please?
stdout: -34.8

stdin: Could you do the same for N=c1nc2n(cc1F)[C@@H]1O[C@H](CO)[C@@H](O)[C@@H]1O2 , please?
stdout: 4.3

stdin: Could you do the same for CC(C)(C)C1=CC(=O)C(C(C)(C)C)=CC1=O , please?
stdout: -17.2

stdin: Could you do the same for N#Cc1nc(-c2ccccc2C(=O)O)oc1N , please?
stdout: -16.1

---

Listed here: items and their measured growth inhibition.
- assay info: NCI Yeast Anticancer Drug Screen. Data for the mec2-1 strain (AID 157)
- condition parameters: S. cerevisiae mec2-1 strain, at 50.0 µM, stronger effect = higher value
About 79,000 compounds went through this panel and 15% of them were active in at least one assay; those are over-represented in the sample as a whole.
Express the result in % but write the number alone.

Some solved entries appear below for comparison.
compound	growth inhibition / %
Oc1ccc2c(c1)c1ccccc1c1ncccc21	3.4
Cc1cn(CCCSCC2OC3OC4C(CO)OC(OC5C(CO)OC(OC6C(CO)OC(OC7C(CO)OC(OC8C(CO)OC(OC9C(CO)OC(OC2C(O)C3O)C(O)C9O)C(O)C8O)C(O)C7O)C(O)C6O)C(O)C5O)C(O)C4O)c(=O)[nH]c1=O (stereo unspecified)	-9.35
CC(=O)n1[nH]c(=O)n(-c2ccc(Cl)cc2)c1=O	-37.2
Cc1ncc([N+](=O)[O-])n1CCNC(=O)CCCCCn1ccnc1[N+](=O)[O-]	-4.05
CC(C)OC(CCC#N)c1ccccc1 (stereo unspecified)	-48.6

stdin: Which growth inhibition is listed for COc1ccc(C2C(C#N)=C(S)N(C3OC(COC(C)=O)C(OC(C)=O)C(OC(C)=O)C3OC(C)=O)C(c3ccccc3)=C2C(C)=O)cc1 (stereo unspecified) ?
stdout: 38.4

stdin: Could you do the same for C/C(=N\NC(=S)N1CCC(C2CCN(C(=S)N/N=C(\C)c3ccccn3)CC2)CC1)c1ccccn1 , please?
stdout: 15.5

stdin: Could you do the same for CCOP(C)(=O)/C(Cc1ccc(OC)c(OC)c1)=N\O (stereo unspecified) , please?
stdout: -22.8

stdin: Could you do the same for CCOC(=O)c1cccc(C(=O)OCC)n1 , please?
stdout: -2.35

stdin: Could you do the same for CC(C)(C(=O)c1cccnc1)c1cccnc1 , please?
stdout: -9.25

stdin: Could you do the same for CCNCc1ccccc1 , please?
stdout: -0.25

stdin: Could you do the same for S=c1[nH]ncn2nc3ccccc3c12 , please?
stdout: 2.5

stdin: Could you do the same for CC(=O)Nc1ccc(CCNC(=O)c2ccc3ccccc3c2O)cc1 , please?
stdout: -33.1

---

Listed here: items and their measured growth inhibition.
- assay info: NCI Yeast Anticancer Drug Screen. Data for the sgs1 mgt1 strain (AID 161);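 note: 0% = growth of cultures given vehicle only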
- condition parameters: S. cerevisiae sgs1 mgt1 strain, at 50.0 µM, stronger effect = higher value
The panel holds about 79,000 compounds, 15% with a hit somewhere; the sample as a whole holds those more often.
Express the result in % but write the number alone.

Some solved entries appear below for comparison.
molecule	u	growth inhibition
NC(=O)C(Cc1ccccc1)NC(=O)C1CCCN1 (stereo not drawn)	%	2.5
C=C(C)C(=O)OCC(O)C[N+](C)(C)C (stereo not drawn)	%	2.9
CCCCCCCCCCCCCCCCCC(=O)OCC(O)CO (stereo not drawn)	%	2.85
COc1ccc(C(=O)CCc2cccc(NC(=O)CCCl)c2)cc1	%	6.45
CC(=O)c1cccc(NC(=O)Oc2ccc(C(=O)OCc3ccccc3)cc2)c1	%	80.7

stdin: Which growth inhibition is listed for Cc1cc(C)c(S(=O)(=O)O)cc1N ?
stdout: 6.1

stdin: Could you do the same for OC(c1ccccc1)(c1ccccc1)c1ccccc1CNc1ccccc1 , please?
stdout: 26.2

stdin: Could you do the same for CC(C)(C)c1ccc(N)cc1 , please?
stdout: -10.9

stdin: Could you do the same for Cc1cc(-c2ccccc2)nc(Nc2cc3ccccc3[nH]2)n1 , please?
stdout: -17.6

stdin: Could you do the same for Nc1ccc(N)c(C(=O)O)c1 , please?
stdout: 1.1

---

- assay info: NCI Yeast Anticancer Drug Screen. Data for the bub3 strain (AID 167)
- condition parameters: S. cerevisiae bub3 mutant strain, at 50.0 µM, stronger effect = higher value
This is part of a sample that, as a whole, favours compounds with a hit. Of some 79,000 tested, about 15% had one in any assay.
experimental readout: growth inhibition (%)
Express the result in % but write the number alone.

Some solved entries appear below for comparison.
compound	result value
S=C(Cc1ccccc1)Nc1ccccc1	-25.4
Cc1ccc(S(=O)(=O)OCC(C)C(c2ccccc2)c2ccccc2)cc1 (centres undefined)	-3.3
O=NNc1ccc(Oc2ccccc2)cn1	-19.8
CCC1(C#N)N=C(c2ccccc2)c2ccccc2N1C(=O)Oc1ccccc1 (centres undefined)	11.1
CCCCCCCCCCCC(=O)N/N=C/c1ccccc1OC	4

stdin: Which growth inhibition is listed for O=[N+]([O-])c1ccc(/C=N/C(/N=C/c2ccc([N+](=O)[O-])cc2)c2ccc([N+](=O)[O-])cc2)cc1 ?
stdout: -4.05

---

- assay info: NCI Yeast Anticancer Drug Screen. Data for the bub3 strain (AID 167)
- condition parameters: S. cerevisiae bub3 mutant strain, at 50.0 µM, stronger effect = higher value
Compounds without any hit were thinned out: in the full panel of roughly 79,000, 15% have a hit. Where a SMILES comes first, the peptide text is derived from it. The star is where a group is joined. Cbz = O=C(OCc1ccccc1)*
experimental readout: growth inhibition (%)
Express the result in % but write the number alone.

Some solved entries appear below for comparison.
molecule	result value
COc1cccc(C2CC(C)(N3CCCC3)Oc3cc4c(cc32)OCO4)c1O (stereo not drawn)	28.6
Cc1c(O)nc(N)[nH]c1=O	-13.3
CCOc1ccccc1/C=C(\C#N)c1cccc(Cl)c1	19.5

stdin: Which growth inhibition is listed for CC(O)C(NC(=O)C(Cc1ccc(O)cc1)NC(=O)OCc1ccccc1)C(=O)O (stereo not drawn) (Cbz-Tyr-Thr-OH; configuration not given here) ?
stdout: -4.85

stdin: Could you do the same for O=[N+]([O-])c1ccc(CSc2ncnc3c2ncn3C2OC(CO)C(O)C2O)cc1 (stereo not drawn) , please?
stdout: -4.05

stdin: Could you do the same for CC1=NC(C(N)=O)C(=O)N1 (stereo not drawn) , please?
stdout: -8.8

stdin: Could you do the same for O=C1CN(c2ccccc2)CC(=O)N2Cc3ccccc3CN12 , please?
stdout: 16.7

stdin: Could you do the same for CCN(CC)CCN(N)CCN(CC)CC , please?
stdout: -44.2

stdin: Could you do the same for O=C(O)/C=C/C(=O)Nc1ccccc1NC(=O)/C=C/C(=O)O , please?
stdout: 19.9
